# System: Escherichia coli
# protocol summary: Antibacterial activity against Escherichia coli MTCC 443 assessed as growth inhibition after 24 to 48 hrs by broth microdilution method
# Format: functional
readout type: MIC (µg/mL)
The answer is to be given in µg/mL; state only the numeric part.

Some entries whose results are on file:
>>> recorded_result("Cc1nn(-c2ccccc2)c(-n2ccnc2)c1C1C(C#N)=C(N)N(c2ccccc2O)C2=C1C(=O)CC(C)(C)C2 (configuration not stated)")
250
>>> recorded_result("Cc1ccc(N2C(N)=C(C#N)C(c3c(C)nn(-c4ccccc4)c3-n3ccnc3)C3=C2CC(C)(C)CC3=O)cc1 (configuration not stated)")
200
>>> recorded_result("Cc1ccc(N2C(N)=C(C(N)=O)C(c3c(C)nn(-c4ccccc4)c3-n3ccnc3)C3=C2CC(C)(C)CC3=O)cc1 (configuration not stated)")
200
>>> recorded_result("CCOC(=O)C1=C(N)N(c2ccc(Cl)cc2)C2=C(C(=O)CC(C)(C)C2)C1c1c(C)nn(-c2ccccc2)c1-n1ccnc1 (configuration not stated)")
100
>>> recorded_result("O=C(N[C@H](CO)[C@H](O)c1ccc([N+](=O)[O-])cc1)C(Cl)Cl [CHLORAMPHENICOL]")
10

The reported MIC value, Escherichia coli, for CC1(C)S[C@@H]2[C@H](NC(=O)[C@H](N)c3ccccc3)C(=O)N2[C@H]1C(=O)O [AMPICILLIN] reads 10

The reported MIC value, Escherichia coli, for Cc1nn(-c2ccccc2)c(-n2ccnc2)c1C1C(C#N)=C(N)N(c2ccccc2)C2=C1C(=O)CC(C)(C)C2 (configuration not stated) reads 100

The reported MIC value, Escherichia coli, for CCOC(=O)C1=C(N)N(c2ccccc2)C2=C(C(=O)CC(C)(C)C2)C1c1c(C)nn(-c2ccccc2)c1-n1ccnc1 (configuration not stated) reads 250
